# TGT: T1, human CD16A-Fc^48R/158V fusion protein (human, UniProt P08637 17-208, limits assumed)
# T1 construct: Secreted soluble fusion made in HEK-293 cells; also called CD16-Fc; CD16A Fc-fusion protein; not shown: Fc portion of human IgG1
# ASSAY PROCEDURE: SPR, BIAcore 2000, CD16A-Fc immobilized on CM5, koff/kon
PROPERTY MEASURED: Kd (nM)
# output: bare number, implied unit nM

Give the reported Kd for this binder. affinity matured anti-CD16A scFv 4-LS14 (scFv, IMAC-purified from pSKK2) scFv: EVQLVQSGAEVKKPGESLKVSCKASGYTFTSYYMHWVRQAPGQGLEWMGIINPSGGSTSYAQKFQGRVTMTRDTSTSTVYMELSSLRSEDTAVYYCARGSAYYYDFADYWGQGTLVTVSSGSASAPTLKLEEGEFSEARVSYELTQPPSVSVTPGQTATITCGANDIGKRNVHWYQQRPGQSPVLVIYQDNKRPSGIPERFSGSNSGNTATLTISGTQAMDEADYYCQVWDNYSVLFGGGTKLTVLGQPKAAPSVTLFPPSAAAGSEQKLISEEDLNSHHHHHH
109
